- assay_target: Carbonic anhydrase 4 (Homo sapiens, UniProt P22748)
- Sequence (P22748 whole entry): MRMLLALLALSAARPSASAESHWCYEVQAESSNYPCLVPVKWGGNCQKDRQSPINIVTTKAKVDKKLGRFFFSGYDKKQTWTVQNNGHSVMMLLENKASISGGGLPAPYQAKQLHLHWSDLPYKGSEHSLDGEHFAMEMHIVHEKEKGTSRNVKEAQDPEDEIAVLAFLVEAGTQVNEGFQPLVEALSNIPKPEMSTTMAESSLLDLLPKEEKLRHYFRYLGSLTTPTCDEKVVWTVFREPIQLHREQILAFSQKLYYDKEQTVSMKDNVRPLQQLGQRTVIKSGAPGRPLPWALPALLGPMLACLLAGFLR
- assay_explanation: Binding affinity to recombinant human CA4 by DSF-based fluorescence thermal shift assay
pKd: −log10 of the molar value.
Classify by measured pKd: t if it is equal to or exceeds 5, f if it is smaller.

Please review the entries below; each comes with its answer.
[
  {
    "compound": "Cc1cc(N2CC(c3n[nH]c(=S)o3)CC2=O)cc(C)c1S(N)(=O)=O (configuration not stated)",
    "class_name": "t"
  },
  {
    "compound": "Cc1cc(NCC(CC(=O)O)c2n[nH]c(=S)n2-c2ccccc2)cc(C)c1S(N)(=O)=O (configuration not stated)",
    "class_name": "f"
  }
]

[Q] Exam item: decide whether the reported pKd for Cc1cc(S(N)(=O)=O)c(C)cc1N1CC(C(=O)NN)CC1=O (configuration not stated) is at least 5.
[A] f

[Q] How about this compound: COc1ccc(/C=N/NC(=O)C2CC(=O)N(c3cc(C)c(S(N)(=O)=O)c(C)c3)C2)cc1 (configuration not stated)
[A] t

[Q] Next: COC(=O)C1CC(=O)N(c2ccc(S(N)(=O)=O)cc2)C1 (configuration not stated)
[A] t
